Value source: paper PMC7408396

Test: Bidirectional transport across IPEC-J2 wild-type (WT) cell monolayers
Assay type: in vitro ADME, porcine
Details: pig, pH 7.4, mean ± SEM, read-out: PA-B (apparent permeability, apical to basolateral)
Protocol: The cell monolayers were washed and pre-incubated in transport buffer consisting of 10 mM HEPES, 0.05% BSA and 0.038% sodium bicarbonate in HBSS pH 7.4 for 15 min at 37 °C on a shaking table (Unimax 2010, Heidolph, Schwabach, Germany) with a rotation of 75–90 rpm. […]
property.name: Papp A→B at 120 min (×10⁻⁶ cm/s)
# unit: ×10⁻⁶ cm/s | format: bare number

Using the record for C[C@H]1O[C@@H](O[C@H]2[C@@H](O)C[C@H](O[C@H]3[C@@H](O)C[C@H](O[C@H]4CC[C@@]5(C)[C@H](CC[C@@H]6[C@@H]5C[C@@H](O)[C@]5(C)[C@@H](C7=CC(=O)OC7)CC[C@]65O)C4)O[C@@H]3C)O[C@@H]2C)C[C@H](O)[C@@H]1O [digoxin] , report its Papp A→B at 120 min.
0.05
